Origin of values: paper PMC3353862

Tested on: bacterial protein synthesis (aminoacylation/translation system)
PROCEDURE SUMMARY: aminoacylation/translation (A/T) assay
Format: biochemical
CONDITION CONTEXT: A/T assay, Table 1; read-out: IC50
VALUE TYPE: IC50

Solved cases below.
{"columns": ["SUBSTANCE SMILES", "MEASURED"],
 "data": [
  ["O=C(Nc1ccc(Cl)cc1)N1CCc2nc(-c3ccccn3)[nH]c(=O)c2C1", "470 nM"],
  ["O=c1[nH]c(-c2ccccn2)nc2c1CCN(Cc1ccc(Cl)cc1)CC2", "560 nM"],
  ["COc1cc2c(cc1CN1CCc3nc(-c4ccccn4)[nH]c(=O)c3C1)OCO2", "> 300000 nM"],
  ["Cc1cccc(-c2nc3c(c(=O)[nH]2)CN(Cc2ccc(Cl)cc2)CC3)n1", "> 300000 nM"],
  ["CC(C)Oc1cccc(CN2CCc3nc(-c4ccccn4)[nH]c(=O)c3C2)c1", "530 nM"]
]}

Prompt: Output measured IC50 for this item: O=c1[nH]c(-c2ccccn2)nc2c1CN(Cc1cc(Cl)ccc1Cl)CC2
Completion: > 300000 nM

Prompt: Output measured IC50 for this item: COc1cc(CN2CCc3nc(-c4ccccn4)[nH]c(=O)c3C2)ccc1OCCO
Completion: > 300000 nM

Prompt: Output measured IC50 for this item: Cc1nc(-c2nc3c(c(=O)[nH]2)CN(Cc2ccc(Cl)cc2)CC3)cs1
Completion: > 300000 nM
